# Tested on: HeLa
# Assay Info: Cytotoxicity against human HeLa cells by MTT assay after 72 hrs
# Type: functional, cell-based
Label 1 when IC50 < 10 µM; otherwise -1.

INSERT INTO assay_data (smiles_str, assigned_class) VALUES
  ('COc1c(CC=C(C)C)c(O)cc(O)c1C(=O)/C=C/c1ccc(O)cc1', -1),
  ('COc1cc2c(c(O)c1C(=O)/C=C/c1ccc(O)cc1)C=CC(C)(C)O2', -1),
  ('COc1c(CC=C(C)C)c(O)c(CC=C(C)C)c(O)c1C(=O)/C=C/c1ccc(O)cc1', 1),
  ('CC(C)=CCC/C(C)=C/Cc1c(O)cc(O)c(C(=O)/C=C/c2ccc(O)cc2)c1O', -1),
  ('COc1cc(OC)c(C(=O)/C=C/c2ccc(O)cc2)c(O)c1C', -1),
  ('COc1cc2c(c(O)c1C(=O)/C=C/c1ccc(O)cc1)CCC(C)(C)O2', -1),
  ('COc1cc(O)c(CCC(C)(C)O)c(O)c1C(=O)/C=C/c1ccc(O)cc1', 1),
  ('COc1cc(O)c(C/C=C(\C)CCC=C(C)C)c(O)c1C(=O)/C=C/c1ccc(O)cc1', 1),
  ('COc1cc(O)c(C(=O)/C=C/c2ccc(O)cc2)c(OC)c1', -1);

The reported numbers originate from ChEMBL document CHEMBL1155133.
